Species on record: Homo sapiens
Assay: Inhibition of calcium ionophore (A-23187) -stimulated leukotriene B4 (LTB4) formation in human neutrophils at 390 nM
Assay type: functional
Settings: Homo sapiens
# label = 1.0 if inhibition at 0.39 µM >= 60% else 0.0

Problem: Decide: is the reported value of inhibition at 0.39 µM for CC(CCC(=O)O)(c1ccc(OCc2ccc3ccccc3n2)cc1)c1ccc(OCc2nc3ccccc3s2)cc1 (stereo not drawn) equal to or greater than 60%?
Solution: 1.0

Problem: Decide: is the reported value of inhibition at 0.39 µM for `CC(SCC(=O)O)(c1ccc(OCc2ccc3ccccc3n2)cc1)c1ccc(OCc2ccc3ccccc3n2)cc1` equal to or greater than 60%?
Solution: 1.0

Problem: Decide: is the reported value of inhibition at 0.39 µM for `O=C(O)/C=N/OCC=C(c1ccc(OCc2ccc3ccccc3n2)cc1)c1ccc(OCc2ccc3ccccc3n2)cc1` equal to or greater than 60%?
Solution: 1.0

Problem: Decide: is the reported value of inhibition at 0.39 µM for `OCC1CCC(c2ccc(OCc3ccc4ccccc4n3)cc2)(c2ccc(OCc3ccc4ccccc4n3)cc2)CC1` equal to or greater than 60%?
Solution: 0.0

Problem: Decide: is the reported value of inhibition at 0.39 µM for CC(CC(c1ccc(OCc2ccc3ccccc3n2)cc1)c1ccc(OCc2ccc3ccccc3n2)cc1)C(=O)O (stereo not drawn) equal to or greater than 60%?
Solution: 1.0

Problem: Decide: is the reported value of inhibition at 0.39 µM for `OC(c1ccc(OCc2ccc3ccccc3n2)cc1)(c1ccc(OCc2ccc3ccccc3n2)cc1)c1cccs1` equal to or greater than 60%?
Solution: 1.0

Problem: Decide: is the reported value of inhibition at 0.39 µM for `O=C(O)C#CC(O)(c1ccc(OCc2ccc3ccccc3n2)cc1)c1ccc(OCc2ccc3ccccc3n2)cc1` equal to or greater than 60%?
Solution: 1.0

Problem: Decide: is the reported value of inhibition at 0.39 µM for `O=C(O)/C=N/OC1CCC(c2ccc(OCc3ccc4ccccc4n3)cc2)(c2ccc(OCc3ccc4ccccc4n3)cc2)CC1` equal to or greater than 60%?
Solution: 0.0

====

Test system: Rattus norvegicus
Test: In vivo inhibition evaluation of leukotriene inhibition in an ionophore-induced rat pleurisy at 3 mg/kg
Type: functional
Please go through the items and note down their ED50.
Express it in mg/kg; write the number only.

For record `CC(CCC(=O)[O-])(c1ccc(OCc2ccc3ccccc3n2)cc1)c1ccc(OCc2ccc3ccccc3n2)cc1.[Na+]` the listed ED50 is 3

For record `C/C(=N\OC(c1ccc(OCc2ccc3ccccc3n2)cc1)c1ccc(OCc2ccc3ccccc3n2)cc1)C(=O)O` the listed ED50 is 1.5

For record `O=C(O)CSC(c1ccc(OCc2ccc3ccccc3n2)cc1)(c1ccc(OCc2ccc3ccccc3n2)cc1)c1cccs1` the listed ED50 is 1.1

For record `C/C(CCC(=O)O)=N\OC(c1ccc(OCc2ccc3ccccc3n2)cc1)c1ccc(OCc2ccc3ccccc3n2)cc1` the listed ED50 is 1

For record `CC(CCC(=O)O)(c1ccc(OCc2ccc3ccccc3n2)cc1)c1ccc(OCc2ccc3ccccc3n2)cc1` the listed ED50 is 1.5

====

Tested on: Rattus norvegicus
Test: Inhibition of leukotriene production in an ionophore-induced rat pleurisy model at 3 mg/kg
Format: functional
Settings: Rattus norvegicus
Measure: inhibition in vivo at 3 mg/kg (%)
Express it in %; write the number only.

Rattus norvegicus data for `CC(C)(CO/N=C/C(=O)O)C(c1ccc(OCc2ccc3ccccc3n2)cc1)c1ccc(OCc2ccc3ccccc3n2)cc1` ; its inhibition in vivo at 3 mg/kg: 27

Rattus norvegicus data for `CC(C)(C(=O)O)C(c1ccc(OCc2ccc3ccccc3n2)cc1)c1ccc(OCc2ccc3ccccc3n2)cc1` ; its inhibition in vivo at 3 mg/kg: 50

Rattus norvegicus data for `CC(/C=C/C(=O)O)=N\OC(c1ccc(OCc2ccc3ccccc3n2)cc1)c1ccc(OCc2ccc3ccccc3n2)cc1` ; its inhibition in vivo at 3 mg/kg: 27

Rattus norvegicus data for `O=C(O)/C=N/OC1CCC(c2ccc(OCc3ccc4ccccc4n3)cc2)(c2ccc(OCc3ccc4ccccc4n3)cc2)CC1` ; its inhibition in vivo at 3 mg/kg: 15

Rattus norvegicus data for `CC(CCC(=O)O)(c1ccc(OCc2cnc3ccccc3n2)cc1)c1ccc(OCc2cnc3ccccc3n2)cc1` ; its inhibition in vivo at 3 mg/kg: 14

Rattus norvegicus data for `OC(c1ccc(OCc2ccc3ccccc3n2)cc1)c1ccc(OCc2ccc3ccccc3n2)cc1` ; its inhibition in vivo at 3 mg/kg: 2

Rattus norvegicus data for `CC(C)(/C=N/OCC(=O)O)C(c1ccc(OCc2ccc3ccccc3n2)cc1)c1ccc(OCc2ccc3ccccc3n2)cc1` ; its inhibition in vivo at 3 mg/kg: 42

Rattus norvegicus data for `C/C(=N\OCCCC(C)(c1ccc(OCc2ccc3ccccc3n2)cc1)c1ccc(OCc2ccc3ccccc3n2)cc1)C(=O)O` ; its inhibition in vivo at 3 mg/kg: 4

Rattus norvegicus data for `O=C(O)CC(c1ccc(OCc2ccc3ccccc3n2)cc1)c1ccc(OCc2ccc3ccccc3n2)cc1` ; its inhibition in vivo at 3 mg/kg: 17

Rattus norvegicus data for `CC(SCC(=O)O)(c1ccc(OCc2ccc3ccccc3n2)cc1)c1ccc(OCc2ccc3ccccc3n2)cc1` ; its inhibition in vivo at 3 mg/kg: 0

Rattus norvegicus data for `O=C(O)C#CC(O)(c1ccc(OCc2ccc3ccccc3n2)cc1)c1ccc(OCc2ccc3ccccc3n2)cc1` ; its inhibition in vivo at 3 mg/kg: 48

Rattus norvegicus data for CC(CCC(=O)O)(c1ccc(OCc2ccc3ccccc3c2)cc1)c1ccc(OCc2ccc3ccccc3n2)cc1 (centres undefined) ; its inhibition in vivo at 3 mg/kg: 55

Rattus norvegicus data for `O=C(O)CSC(c1ccc(OCc2ccc3ccccc3n2)cc1)(c1ccc(OCc2ccc3ccccc3n2)cc1)c1cccs1` ; its inhibition in vivo at 3 mg/kg: 80

Rattus norvegicus data for `O=C(O)CON=C1CCC(c2ccc(OCc3ccc4ccccc4n3)cc2)(c2ccc(OCc3ccc4ccccc4n3)cc2)CC1` ; its inhibition in vivo at 3 mg/kg: 0

Rattus norvegicus data for `CC(O)(c1ccc(OCc2ccc3ccccc3n2)cc1)c1ccc(OCc2ccc3ccccc3n2)cc1` ; its inhibition in vivo at 3 mg/kg: 0

Rattus norvegicus data for `O=C(O)/C=N/OC(c1ccc(OCc2ccc3ccccc3n2)cc1)c1ccc(OCc2ccc3ccccc3n2)cc1` ; its inhibition in vivo at 3 mg/kg: 37

Rattus norvegicus data for `CC(CC(=O)O)(c1ccc(OCc2ccc3ccccc3n2)cc1)c1ccc(OCc2ccc3ccccc3n2)cc1` ; its inhibition in vivo at 3 mg/kg: 0

Rattus norvegicus data for CC(CCC(=O)O)(c1ccc(OCc2ccc3ccccc3n2)cc1)c1ccc(OCc2nc3ccccc3s2)cc1 (centres undefined) ; its inhibition in vivo at 3 mg/kg: 35

Rattus norvegicus data for `CC(CCCO)(c1ccc(OCc2ccc3ccccc3n2)cc1)c1ccc(OCc2ccc3ccccc3n2)cc1` ; its inhibition in vivo at 3 mg/kg: 7

Rattus norvegicus data for `C/C(=N\OC1CCC(c2ccc(OCc3ccc4ccccc4n3)cc2)(c2ccc(OCc3ccc4ccccc4n3)cc2)CC1)C(=O)O` ; its inhibition in vivo at 3 mg/kg: 48

Rattus norvegicus data for `CC(CCC(=O)O)(c1ccc(OCc2ccc3cc(F)ccc3n2)cc1)c1ccc(OCc2ccc3cc(F)ccc3n2)cc1` ; its inhibition in vivo at 3 mg/kg: 42

Rattus norvegicus data for `CC(CCCO/N=C/C(=O)O)(c1ccc(OCc2ccc3ccccc3n2)cc1)c1ccc(OCc2ccc3ccccc3n2)cc1` ; its inhibition in vivo at 3 mg/kg: 0

Rattus norvegicus data for CC(CC(c1ccc(OCc2ccc3ccccc3n2)cc1)c1ccc(OCc2ccc3ccccc3n2)cc1)C(=O)O (centres undefined) ; its inhibition in vivo at 3 mg/kg: 53

Rattus norvegicus data for `C/C(=N\OCCC(C)(c1ccc(OCc2ccc3ccccc3n2)cc1)c1ccc(OCc2ccc3ccccc3n2)cc1)C(=O)O` ; its inhibition in vivo at 3 mg/kg: 23

Rattus norvegicus data for `O=C(O)CO/N=C/C=C(c1ccc(OCc2ccc3ccccc3n2)cc1)c1ccc(OCc2ccc3ccccc3n2)cc1` ; its inhibition in vivo at 3 mg/kg: 10

Rattus norvegicus data for `O=C(O)CON=C(c1ccc(OCc2ccc3ccccc3n2)cc1)c1ccc(OCc2ccc3ccccc3n2)cc1` ; its inhibition in vivo at 3 mg/kg: 0

Rattus norvegicus data for `CC(CCCC(=O)O)(c1ccc(OCc2ccc3ccccc3n2)cc1)c1ccc(OCc2ccc3ccccc3n2)cc1` ; its inhibition in vivo at 3 mg/kg: 35

Rattus norvegicus data for `CC(CCC(=O)O)(c1ccc(OCc2nc3ccccc3s2)cc1)c1ccc(OCc2nc3ccccc3s2)cc1` ; its inhibition in vivo at 3 mg/kg: 0

Rattus norvegicus data for `C/C(=N\OCCC#CC(O)(c1ccc(OCc2ccc3ccccc3n2)cc1)c1ccc(OCc2ccc3ccccc3n2)cc1)C(=O)O` ; its inhibition in vivo at 3 mg/kg: 40

Rattus norvegicus data for `O=C(O)C=C(c1ccc(OCc2ccc3ccccc3n2)cc1)c1ccc(OCc2ccc3ccccc3n2)cc1` ; its inhibition in vivo at 3 mg/kg: 11

Rattus norvegicus data for `C/C(=N\OCC=C(c1ccc(OCc2ccc3ccccc3n2)cc1)c1ccc(OCc2ccc3ccccc3n2)cc1)C(=O)O` ; its inhibition in vivo at 3 mg/kg: 42

Rattus norvegicus data for `OC(c1ccc(OCc2ccc3ccccc3n2)cc1)(c1ccc(OCc2ccc3ccccc3n2)cc1)c1cccs1` ; its inhibition in vivo at 3 mg/kg: 0

Rattus norvegicus data for `O=C(O)/C=N/OCC=C(c1ccc(OCc2ccc3ccccc3n2)cc1)c1ccc(OCc2ccc3ccccc3n2)cc1` ; its inhibition in vivo at 3 mg/kg: 17

Rattus norvegicus data for `CC(CC/C=N\OCC(=O)O)(c1ccc(OCc2ccc3ccccc3n2)cc1)c1ccc(OCc2ccc3ccccc3n2)cc1` ; its inhibition in vivo at 3 mg/kg: 0
